assay: inhibition of NOD2-driven NF-kB reporter – cell-based, luminescence, uHTS, HEK293 (AID 1566); settings: HEK293 NOD2/NF-kB luciferase reporter, at 4 µM, hits give high values
Out of some 290,000 compounds screened, about 1,800 (0.62%) were called active. Shown is part of a subset that was picked to be rich in actives.
Property name: inhibition (%)

INSERT INTO assay_data (compound, measurement) VALUES
  ('Cc1[nH]c2ccccc2c1-c1nc2ccccc2[nH]c1=O', 4.1),
  ('COc1ccccc1C(=O)N1CCN(c2cccc(Cl)c2)CC1', 3.1),
  ('CCOc1ccccc1C(=O)N1CCN(c2cccc(Cl)c2)CC1', -14),
  ('COc1ccc(N(C)C(=O)c2cnc(N3CCN(c4ncccn4)CC3)c3ccccc23)cc1', 14.7),
  ('CNc1nnc(-c2cc3ccccc3oc2=O)s1', -76.8),
  ('Cc1cc(C)c2c(N)c(C(=O)Nc3nccs3)sc2n1', -123),
  ('CC(=C/c1ccccc1)/C=N/Nc1nc(N2CCOCC2)nc(N2CCOCC2)n1', -9.3),
  ('Cc1nc2cc(-c3ccccc3)sc2c(=O)n1N', 54.8),
  ('COCCN1CN=C(NS(=O)(=O)c2ccc(C)cc2)NC1', 6.3),
  ('CNc1nnc(-c2cc3cc(Cl)ccc3oc2=O)s1', 94.4),
  ('Cc1cc(-n2c(C)cc(C(=O)CSc3nc4ccccc4c(=O)n3Cc3ccco3)c2C)no1', 18.1),
  ('Cc1cc(C)c2c(N)c(C(=O)Nc3ncc(C)s3)sc2n1', 62),
  ('Cc1cc(C)c2c(N)c(C(=O)NN)sc2n1', 0.7),
  ('CCN(CC)C(=O)CNc1ccc(C(F)(F)F)cc1[N+](=O)[O-]', 4.7),
  ('Cc1ccc(NS(=O)(=O)c2cc(NC(=O)c3cc(=O)[nH]c(=O)[nH]3)ccc2Cl)c(C)c1', 22.6),
  ('Cc1cc(NC(=O)CSc2ncnc3ccccc23)no1', 20),
  ('O=C(O)c1ccc(-n2c(/C=C/c3ccccc3)nc3ccccc3c2=O)cc1', -19.9),
  ('CCOc1ccc(S(=O)(=O)Nc2ccc(C(=O)NCC(c3ccccc3)N(C)C)cc2)cc1 (stereo not drawn)', 7.3),
  ('COc1ccc(CCNC(=O)Nc2cccc([N+](=O)[O-])c2)cc1OC', 4.7),
  ('Cc1nc2ccccc2c(=O)n1N', -3.2),
  ('Cc1ccc(/C=C(/NC(=O)c2ccccc2)C(=O)NC(Cc2c[nH]c3ccccc23)C(=O)O)cc1 (stereo not drawn)', 9.4),
  ('COc1ccccc1CNC(=O)N1CCN(c2ccccc2Cl)CC1', 4),
  ('CC(=O)Nc1ccc(S(=O)(=O)Nc2nc3ccccc3nc2N2CCCC2)cc1', -6);

---

Measured inhibition, listed per entry for reference.
experiment: inhibition of NOD2-driven NF-kB reporter – cell-based, luminescence, uHTS, HEK293 (AID 1566); conditions: HEK293 NOD2/NF-kB luciferase reporter, at 4 µM, hits give high values
The campaign covered roughly 290,000 compounds. About 1,800 (0.62%) were called active. The full list was thinned out, with actives kept by preference.
Property name: inhibition (%)

INSERT INTO measurements (molecule, measurement) VALUES
  ('CC(NS(=O)(=O)c1ccc(Cl)cc1)C(=O)N1CCOCC1 (stereo unspecified)', -4.3),
  ('Cc1c(NP(=O)(Oc2ccccc2F)Oc2ccccc2F)c(=O)n(-c2ccccc2)n1C', 7.9),
  ('CN=c1scc(-c2ccccc2F)n1/N=C/c1ccc[nH]1', 90.4),
  ('CC(C)(C)C(=O)Nc1cc2nn(-c3ccccc3)nc2cc1Cl', 76.2),
  ('S=C(NCc1ccccc1)NN1CCOCC1', 1.7),
  ('CCS(=O)(=O)N1CCN(C(=O)c2cccc(OC)c2)CC1', 14.1),
  ('CC(=O)Nc1cc2nn(-c3ccccc3)nc2cc1Cl', -133),
  ('O=C(NNC(=O)c1ccc[nH]1)Nc1cc(Cl)cc(Cl)c1', 2.1),
  ('CCN(CC)CCNC(=O)c1cccc(NC(=O)C(=O)c2ccccc2NC(C)=O)c1', 3.6),
  ('CCC(=O)Nc1cc2nn(-c3ccccc3)nc2cc1Cl', -189),
  ('O=C(c1ccc2c(=O)n(-c3ccccc3)c(=O)[nH]c2c1)N1CCN(c2ccc(F)cc2)CC1', 14.2);

---

experiment: inhibition of NOD2-driven NF-kB reporter – cell-based, luminescence, uHTS, HEK293 (AID 1566); details: HEK293 NOD2/NF-kB luciferase reporter, at 4 µM, hits give high values
Among all 290,000 compounds or so, about 1,800 (0.62%) were called active. This is one part of a sample in which actives are shown more often than they occur.
Property name: inhibition (%)

INSERT INTO assay_data (molecule, property_name, unit_symbol, measurement) VALUES
  ('COc1ccc(C(C)(C)C)cc1S(=O)(=O)n1ccnc1C', 'inhibition', '%', 9),
  ('COc1ccc(C/C(C)=N/NC(=O)c2cccnc2)cc1', 'inhibition', '%', -5.6),
  ('CCS(=O)(=O)N1CCN=C1SCc1cccc(F)c1', 'inhibition', '%', 8.5),
  ('CCOCCCNC(=O)/C(C#N)=C/c1ccc(C(=O)OC)cc1', 'inhibition', '%', 15.4),
  ('O=C(CN1C(=O)NC2(CCCC2)C1=O)Nc1ccccc1C(F)(F)F', 'inhibition', '%', 18.6),
  ('CC(=O)c1cccc(NCC(=O)c2ccc(C)c([N+](=O)[O-])c2)c1', 'inhibition', '%', 15.7),
  ('COc1cc2cc(Br)cc(Br)c2nc1C', 'inhibition', '%', 5.9),
  ('Cc1cc(C(C)(C)C)cc(C)c1C[n+]1ccc2ccccc2c1', 'inhibition', '%', 52.3),
  ('Cc1ccc(-c2cc3c(N=O)c4ccccc4c-3n[nH]2)cc1', 'inhibition', '%', 70.7),
  ('O=C(NCC1CCCN(C(=O)NCc2ccccc2)C1)c1ccc2c(c1)OCO2 (stereo not drawn)', 'inhibition', '%', -0.6),
  ('Cc1ccc(/C=N/c2sc3c(c2C(N)=O)CCCC3)o1', 'inhibition', '%', -59.1),
  ('COc1ccc(-c2csc(/C(C#N)=C\c3ccc(OC)c([N+](=O)[O-])c3)n2)cc1', 'inhibition', '%', 25.7),
  ('Cc1csc(NC(=O)CSc2nnc(NC(=O)COc3ccc(Cl)cc3)s2)n1', 'inhibition', '%', -17.3),
  ('COCCNC(=O)C1CC(c2ccc([N+](=O)[O-])cc2)=NO1 (stereo not drawn)', 'inhibition', '%', 21),
  ('CCN1CCN(Cc2ccc(NC(=O)c3ccc(C)c(NC(=O)c4cccc5[nH]ccc45)c3)cc2C(F)(F)F)CC1', 'inhibition', '%', -20.7),
  ('COc1ccc(NS(=O)(=O)/C=C/c2ccccc2)cc1', 'inhibition', '%', 17.1),
  ('CCN=C1S/C(=C\c2ccc(-c3cccc(C(=O)O)c3)o2)C(=O)N1CC', 'inhibition', '%', -81.2),
  ('CCOC(=O)C1=C(c2ccccc2)O/C(=C(/C(=O)OC)C(F)(F)F)S1', 'inhibition', '%', 5.4),
  ('Cc1cccc(-c2cc3c(N=O)c4ccccc4c-3n[nH]2)c1', 'inhibition', '%', -162),
  ('CCN1CCN(Cc2ccc(NC(=O)c3ccc(C)c(NC(=O)C(=O)c4c[nH]c5ccccc45)c3)cc2C(F)(F)F)CC1', 'inhibition', '%', 57),
  ('CCN1C(=O)/C(=C\c2ccc(-c3cccc(C(=O)OC)c3)o2)SC1=Nc1ccc(C(=O)O)cc1', 'inhibition', '%', 4.2),
  ('O=C(NCc1ccon1)C1CCC(=O)N(CCc2ccc(Cl)cc2)C1 (stereo not drawn)', 'inhibition', '%', 6.3),
  ('CCn1c(C)c(C(C)=O)c(N2CCN(c3cccc(Cl)c3)CC2)nc1=S', 'inhibition', '%', 15.5),
  ('CC1(c2ccccc2)NC(=O)N(CC(=O)Nc2nnc(C3CC3)s2)C1=O (stereo not drawn)', 'inhibition', '%', -9.7),
  ('O=C(COc1ccc2c3c(c(=O)oc2c1)CCCC3)N[C@@H](Cc1ccccc1)C(=O)O', 'inhibition', '%', 9.1),
  ('O=Nc1c2cc(-c3ccccc3)[nH]nc-2c2ccccc12', 'inhibition', '%', -167),
  ('Cc1noc(C)c1CSCC(=O)OCC(=O)NC1CCCCC1', 'inhibition', '%', 1.1),
  ('CC1Cc2ccccc2N1c1ncnc(N)c1[N+](=O)[O-] (stereo not drawn)', 'inhibition', '%', 82.8),
  ('CCN1CCN(Cc2ccc(NC(=O)c3cc(NC(=O)C(=O)c4c[nH]c5ccccc45)cc(OC)c3)cc2C(F)(F)F)CC1', 'inhibition', '%', 5.4),
  ('Clc1ccc(Nc2nc(N3CCOCC3)nc(N3CCOCC3)n2)cc1Cl', 'inhibition', '%', 8.7),
  ('COc1ccccc1-c1nc(C#N)c(N2CCN(c3ccccc3)CC2)o1', 'inhibition', '%', -1.7),
  ('Cc1ccc(C(=O)CSc2ncnc3sc4c(c23)CCCC4)cc1', 'inhibition', '%', 30.2),
  ('CCC(C)(C)C1CCC2(CC1)NC(=O)N(CC(=O)N(C)CC(=O)Nc1ccccc1C(F)(F)F)C2=O (stereo not drawn)', 'inhibition', '%', 52.8),
  ('O=C(CCc1nnc(CCCCc2ccccc2)o1)NCCc1cccnc1', 'inhibition', '%', 24.2),
  ('CC1CCN(C(=S)c2cn(Cc3ccccc3F)c3ccccc23)CC1', 'inhibition', '%', 10.5),
  ('CCOc1cc(/C=C2\C(=N)N3N=C(C)SC3=NC2=O)ccc1OCCOc1cccc(OC)c1', 'inhibition', '%', 7.2),
  ('CCOC(=O)CNC(=S)N(CCCN1CCN(C)CC1)Cc1cccs1', 'inhibition', '%', -1.4),
  ('Cc1cc(C(=O)OCC(=O)Nc2cc(S(=O)(=O)N(C)C)ccc2Cl)c2ccccc2n1', 'inhibition', '%', 10.5),
  ('Cc1cc(-c2nnc(SCC(=O)c3ccc(Cl)cc3)o2)no1', 'inhibition', '%', 1.2),
  ('COc1ccc(OC)c(NC(=O)C2CC(=O)N(c3ccccc3)C2)c1 (stereo not drawn)', 'inhibition', '%', -11.1),
  ('CCNC(=S)N1CCN(CC(=O)Nc2ccc(OC)cc2)CC1', 'inhibition', '%', -3.6),
  ('O=S(=O)(NCc1ccccn1)c1cc(Cl)ccc1Cl', 'inhibition', '%', -6),
  ('CC(C(=O)NC1CCCCCC1)n1cc([N+](=O)[O-])cn1 (stereo not drawn)', 'inhibition', '%', 3.3);
